Measurement target: IRAK4 (Homo sapiens, UniProt Q9NWZ3)
Construct: endogenous in cells; host or cells: Karpas299
Sequence (Q9NWZ3 whole entry): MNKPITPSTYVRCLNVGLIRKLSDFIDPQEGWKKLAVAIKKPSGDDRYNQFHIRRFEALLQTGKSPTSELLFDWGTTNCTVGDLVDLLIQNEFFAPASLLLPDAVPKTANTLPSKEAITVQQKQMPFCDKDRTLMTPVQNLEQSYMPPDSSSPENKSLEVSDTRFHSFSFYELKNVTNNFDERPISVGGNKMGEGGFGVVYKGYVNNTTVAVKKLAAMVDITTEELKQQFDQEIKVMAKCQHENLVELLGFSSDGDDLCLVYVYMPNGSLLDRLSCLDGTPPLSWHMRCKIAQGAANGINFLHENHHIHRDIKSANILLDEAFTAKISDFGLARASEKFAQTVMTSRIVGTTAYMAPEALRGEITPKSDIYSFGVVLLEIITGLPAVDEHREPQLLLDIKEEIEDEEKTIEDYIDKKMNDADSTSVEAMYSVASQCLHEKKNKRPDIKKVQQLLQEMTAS
Measurement description: IRAK4 Degradation Assay (Karpas299, HTRF/TR-FRET)
Format: cell-based
Recorded conditions: Karpas-299 cells, 5 h treatment; maximum percentage of degradation; read-out: IRAK4 in Karpas-299 (5 h) Dmax (%)
Property name: Dmax (%)
Expressed in %, but write only the number.

The following molecules have reported results that may help.
Molecule	Measurement target	Property name	Reported
CC(C)(O)c1cc2nn([C@H]3CC[C@H](N4CCN(C(=O)C5CN(c6cc(F)c([C@H]7CCC(=O)NC7=O)c(F)c6)C5)CC4)CC3)cc2cc1NC(=O)c1cccc(C(F)(F)F)n1	IRAK4 (Homo sapiens, UniProt Q9NWZ3)	Dmax	95
COc1cc2nn(C3CCN(C4CN(C(=O)[C@@H]5CCN(c6cc(F)c([C@H]7CCC(=O)NC7=O)c(F)c6)C5)C4)CC3)cc2cc1NC(=O)c1cccc(C(F)(F)F)n1	IRAK4 (Homo sapiens, UniProt Q9NWZ3)	Dmax	83
CC(C)(O)c1cc2nn([C@H]3CC[C@H](N4CCN(C5CCN(c6ccc(C7CCC(=O)NC7=O)nc6)CC5)CC4)CC3)cc2cc1NC(=O)c1ccc2cc(C#N)cnn12 (stereo partly shown)	IRAK4 (Homo sapiens, UniProt Q9NWZ3)	Dmax	97

Dmax recorded for this molecule, `Cc1cc(-c2nc(C(=O)Nc3cn(-c4ccc(N5CCN(C(=O)[C@@H]6CCN(c7cc(F)c([C@H]8CCC(=O)NC8=O)c(F)c7)C6)CC5)nc4)nc3C(N)=O)co2)ccn1` , is 76

Dmax recorded for this molecule, `CC(C)(O)c1cc2nn([C@H]3CC[C@H](N4CCN([C@H]5C[C@@H](c6cc(F)c([C@H]7CCC(=O)NC7=O)c(F)c6)C5)CC4)CC3)cc2cc1NC(=O)c1ccc2cc(C#N)cnn12` , is 95

Dmax recorded for this molecule, Cc1cc(C2CCC(=O)NC2=O)c(F)cc1[C@H]1C[C@H](N2CCN([C@H]3CC[C@H](n4cc5cc(NC(=O)c6ccc7cc(C#N)cnn67)c(C(C)(C)O)cc5n4)CC3)CC2)C1 (stereo partly shown) , is 96

Dmax recorded for this molecule, `CC(C)(O)c1cc2nn(C34CC(N5CCN(C(=O)[C@@H]6CCN(c7cc(F)c([C@H]8CCC(=O)NC8=O)c(F)c7)C6)CC5)(C3)C4)cc2cc1NC(=O)c1cccc(C(F)(F)F)n1` , is 96

Dmax recorded for this molecule, `COC[C@H]1CN([C@H]2CC[C@H](n3cc4cc(NC(=O)c5ccc6cc(C#N)cnn56)c(C(C)(C)O)cc4n3)CC2)CCN1CC1CN(c2cc(F)c([C@H]3CCC(=O)NC3=O)c(F)c2)C1` , is 97

Dmax recorded for this molecule, `CC(C)(O)c1cc2nn([C@H]3CC[C@H](N4CCN([C@H]5C[C@H](c6cc(F)c([C@H]7CCC(=O)NC7=O)c(F)c6)C5)CC4)CC3)cc2cc1NC(=O)c1ccc2cc(C#N)cnn12` , is 96

Dmax recorded for this molecule, `COc1cc2nn([C@H]3CC[C@H](N4CCN(C(=O)[C@@H]5CCN(c6cc(F)c(N7CCC(=O)NC7=O)c(F)c6)C5)CC4)CC3)cc2cc1NC(=O)c1cccc(C(F)(F)F)n1` , is 94

---

Measurement target: IRAK4 (Homo sapiens, UniProt Q9NWZ3)
Construct: endogenous in cells; host or cells: Karpas299
Measurement description: IRAK4 Degradation Assay (Karpas299, HTRF/TR-FRET)
Assay type: cell-based
Recorded conditions: Karpas-299 cells, 24 h treatment; maximum percentage of degradation; read-out: IRAK4 in Karpas-299 (24 h) Dmax (%)
Property name: Dmax (%)
Expressed in %, but write only the number.

Dmax recorded for this compound, `CC(C)(O)c1cc2nn(C3CCN([C@H]4CCN(CC5CN(c6cc(F)c([C@H]7CCC(=O)NC7=O)c(F)c6)C5)CC4(F)F)CC3)cc2cc1NC(=O)c1ccc2cc(C#N)cnn12` , is 96

Dmax recorded for this compound, `CC(C)(O)c1cc2nn([C@H]3CC[C@H](CN4CCN(C(=O)C5CN(c6cc(F)c([C@H]7CCC(=O)NC7=O)c(F)c6)C5)CC4)CC3)cc2cc1NC(=O)c1csc(-c2cn[nH]c2)n1` , is 97

Dmax recorded for this compound, `COc1cc(N2CC[C@@H](C(=O)N3CCN([C@H]4CC[C@H](n5cc6cc(NC(=O)c7ccc8cc(C#N)cnn78)c(C(C)(C)O)cc6n5)CC4)CC3)C2)cc(F)c1N1CCC(=O)NC1=O` , is 94

Dmax recorded for this compound, `CC(C)(O)c1cc2nn([C@H]3CC[C@H](N4CCN([C@H]5C[C@@H](c6cc(F)c([C@H]7CCC(=O)NC7=O)c(F)c6)C5)CC4)CC3)cc2cc1NC(=O)c1ccc2cc(C#N)cnn12` , is 96

Dmax recorded for this compound, `CC(C)(O)c1cc2nn(C3CCN([C@@H]4CCN(C5CN(c6cc(F)c([C@H]7CCC(=O)NC7=O)c(F)c6)C5)CC4(F)F)CC3)cc2cc1NC(=O)c1ccc2cc(C#N)cnn12` , is 102

---

Measurement target: IRAK4 (Homo sapiens, UniProt Q9NWZ3)
Construct: endogenous in cells; host or cells: Karpas299
Measurement description: IRAK4 Degradation Assay (Karpas299, HTRF/TR-FRET)
Format: cell-based
Recorded conditions: Karpas-299 cells, 24 h treatment; read-out: IRAK4 in Karpas-299 (24 h) DC50
Entries annotated with measured DC50
Expressed in nM, but write only the number.

Sample smiles	DC50 [nM]
CC(C)(O)c1cc2nn([C@H]3CC[C@H](N4CCN(CCNc5cc(F)c([C@H]6CCC(=O)NC6=O)c(F)c5)CC4)CC3)cc2cc1NC(=O)c1ccc2cc(C#N)cnn12	1.1

DC50 recorded for this compound, `CC(C)(O)c1cc2nn([C@H]3CC[C@H](N4CCN(C(=O)C5CN(c6cc(F)c([C@H]7CCC(=O)NC7=O)c(F)c6)C5)CC4)CC3)cc2cc1NC(=O)c1ccc2cc(C(F)(F)F)cnn12` , is 1.9

DC50 recorded for this compound, `O=C1CC[C@H](c2c(F)cc(N3CC(C(=O)N4CCN([C@H]5CC[C@H](n6cc7cc(NC(=O)c8cccc(C(F)(F)F)n8)c(OC8COC8)nc7n6)CC5)CC4)C3)cc2F)C(=O)N1` , is 0.6

---

Measurement target: IRAK4 (Homo sapiens)
Construct: endogenous in cells; host or cells: Karpas299
Measurement description: IRAK4 Degradation Assay (Karpas299, HTRF/TR-FRET)
Assay type: cell-based
Recorded conditions: Karpas-299 cells, 5 h treatment; maximum percentage of degradation; read-out: IRAK4 in Karpas-299 (5 h) Dmax (%)
Property name: Dmax (%)
Expressed in %, but write only the number.

Dmax recorded for this compound, Cc1nc(C2CCC(=O)NC2=O)ccc1N1CCC(N2CCN([C@H]3CC[C@H](n4cc5cc(NC(=O)c6ccc7cc(C#N)cnn67)c(C(C)(C)O)cc5n4)CC3)CC2)CC1 (some centres unmarked) , is 97

Dmax recorded for this compound, `CC(C)(O)c1cc2nc(C3CCN(C4CCN(C(=O)[C@H]5CCN(c6ccc(N7CCC(=O)NC7=O)cc6)C5)CC4)CC3)cn2cc1NC(=O)c1cccc(C(F)(F)F)n1` , is 90

Dmax recorded for this compound, `COc1cc2nn([C@H]3CC[C@H](N4CCN(C(=O)C5CN(c6ccc(N7CCC(=O)NC7=O)cc6)C5)CC4)CC3)cc2cc1NC(=O)c1cccc(C(F)(F)F)n1` , is 93

Dmax recorded for this compound, `CC(C)(O)c1cc2nc(C3CCN(C4CCN(C(=O)C5CN(c6cc(F)c([C@H]7CCC(=O)NC7=O)c(F)c6)C5)CC4)CC3)cn2cc1NC(=O)c1cccc(C(F)(F)F)n1` , is 92

Dmax recorded for this compound, `COC[C@H]1CN(CC2CN(c3cc(F)c([C@H]4CCC(=O)NC4=O)c(F)c3)C2)CCN1[C@H]1CC[C@H](n2cc3cc(NC(=O)c4ccc5cc(C#N)cnn45)c(C(C)(C)O)cc3n2)CC1` , is 98

---

Entries annotated with measured Dmax
Measurement target: IRAK4 (Homo sapiens, UniProt Q9NWZ3)
Construct: endogenous in cells; host or cells: Karpas299
Measurement description: IRAK4 Degradation Assay with Human Serum (Karpas299, HTRF/TR-FRET)
Format: cell-based
Recorded conditions: Karpas-299 in human serum, 24 hrs treatment; read-out: IRAK4 degradtion with human serum assay Dmax (%)
Expressed in %, but write only the number.

The following compounds have reported results that may help.
Compound	Dmax [%]
COC[C@H]1CN([C@H]2CC[C@H](n3cc4cc(NC(=O)c5ccc6cc(C#N)cnn56)c(C(C)(C)O)cc4n3)CC2)CCN1CC1CCN(c2ccc3c(c2)CN(C2CCC(=O)NC2=O)C3=O)CC1 (some centres unmarked)	87
C[C@H]1CN(C2CCN(c3cc(F)c([C@H]4CCC(=O)NC4=O)c(F)c3)CC2)CCN1[C@H]1CC[C@H](n2cc3cc(NC(=O)c4ccc5cc(C#N)cnn45)c(C(C)(C)O)cc3n2)CC1	99
COC[C@@H]1CN([C@H]2CC[C@H](n3cc4cc(NC(=O)c5ccc6cc(C#N)cnn56)c(C(C)(C)O)cc4n3)CC2)CCN1CC1CN(c2cc(F)c([C@H]3CCC(=O)NC3=O)c(F)c2)C1	96
CC(=O)c1cc2nn([C@H]3CC[C@H](N4CCN(C5CN(c6cc(F)c([C@H]7CCC(=O)NC7=O)c(F)c6)C5)CC4)CC3)cc2cc1NC(=O)c1ccc2cc(C#N)cnn12	94

Switching to the query record.
Dmax recorded for this compound, `CC(C)(O)c1cc2nn([C@H]3CC[C@H](N4CCN(CC5CN(c6cc(F)c([C@H]7CCC(=O)NC7=O)c(F)c6)C5)C[C@@H]4CO)CC3)cc2cc1NC(=O)c1ccc2cc(C#N)cnn12` , is 97

# credit: patent US20250195513A1
